Hello, the source for this data is PubChem BioAssay (NCI), in case you need it.

Test system: SNB-75 CNS
assayExplanation: NCI-60 one-dose screen, 48 h (100 = growth as untreated, 0 = no growth, -100 = all killed)
experimentalSetup: 10 µM unless noted
The panel holds about 83,000 compounds, 20% with a hit somewhere; the sample as a whole holds those more often.
// reported growth for each item listed
Write down the numeric answer in % and omit the unit.

Worked cases, answers included:
- compound: "CCCCCCCCCCCCCCCCCC1OC[C@H](COC(=O)O[C@@H](C(=O)O[C@H]2C[C@@]3(O)[C@@H](OC(=O)c4ccccc4)[C@@H]4[C@]5(OC(C)=O)CO[C@@H]5C[C@H](O)[C@@]4(C)C(=O)[C@H](OC(C)=O)C(=C2C)C3(C)C)[C@@H](NC(=O)c2ccccc2)c2ccccc2)O1 (stereo not given in full)"
  growth, %: 59.1
- compound: "CC[C@H](C)[C@H](NC(=O)[C@H]1CCCCN1C)C(=O)N(C)[C@H](C[C@@H](OC(C)=O)c1nc(C(=O)NC23CC(C(=O)OC)(C2)C3)cs1)C(C)C"
  growth, %: 15
- compound: "C[C@]12CCc3sc(-c4cccc(F)c4)nc3C1=CC[C@@H]1[C@@H]2CC[C@]2(C)C(=O)CC[C@@H]12"
  growth, %: 44.6
- compound: "COc1cc(/C=C\\c2cc(OC)c(OC)c(OC)c2)cc(N/C=C\\C(=O)c2cc(OC)c(OC)c(OC)c2)c1OC"
  growth, %: -6.67

Note: attention shifts to another entry.
The value of growth measured for the compound CC[C@H](C)[C@H](NC(=O)NC(C)(C)C)C(=O)N(C)[C@H](C[C@@H](OC(C)=O)c1nc(C(=O)N[C@@H](Cc2ccccc2)C[C@H](C)C(=O)OC)cs1)C(C)C turned out to be 34.1

====

// reported growth for each item listed
Tested on: SK-MEL-2 melanoma
assayExplanation: NCI-60 one-dose screen, 48 h (100 = growth as untreated, 0 = no growth, -100 = all killed)
experimentalSetup: 10 µM unless noted
Compounds without any hit were thinned out: in the full panel of roughly 83,000, 20% have a hit.
Write down the numeric answer in % and omit the unit.

- lineNotation: "CCOP(=O)(Cc1ccc(C#N)cc1)OCC"
  measurementUnits: "%"
  growth: 92.3

The value of growth measured for the molecule CC(=O)[O][Hg][O]C(C)=O turned out to be 90.3

The value of growth measured for the molecule CC(C)=CCC[C@H](C(=O)O)[C@@H]1CC[C@]2(C)C3=C(CC[C@@]12C)[C@@]1(C)CC[C@H](O)C(C)(C)[C@@H]1CC3 turned out to be 91

====

Test system: LOX IMVI melanoma
assayExplanation: NCI-60 one-dose screen, 48 h (100 = growth as untreated, 0 = no growth, -100 = all killed)
experimentalSetup: 10 µM unless noted
This is part of a sample that, as a whole, favours compounds with a hit. Of some 83,000 tested, about 20% had one in any assay.
valueType: growth (%)
Write down the numeric answer in % and omit the unit.

Worked cases, answers included:
- compound: "O=C1Nc2ccccc2C2c3cccn3-c3ccccc3CN12 (stereo not given)"
  growth, %: 63
- compound: "O=C(Nc1ccc([N+](=O)[O-])cc1)C(Cl)(Cl)Cl"
  growth, %: 63.3
- compound: "Cc1cc(-c2nc3cc(F)ccc3[se]2)cc(F)c1N"
  growth, %: 90
- compound: "O=C([O][Hg][CH2]C1COCC([CH2][Hg][O]C(=O)c2ccccc2)O1)c1ccccc1 (stereo not given)"
  growth, %: 11.4

Note: attention shifts to another entry.
The value of growth measured for the compound Nc1ccc(Cl)cc1 turned out to be 92.8
